- assay system: hERG potassium ion channel (Homo sapiens)
- Construct: host or cells: CHO cells stably expressing hERG
- Sequence (Q12809 whole entry): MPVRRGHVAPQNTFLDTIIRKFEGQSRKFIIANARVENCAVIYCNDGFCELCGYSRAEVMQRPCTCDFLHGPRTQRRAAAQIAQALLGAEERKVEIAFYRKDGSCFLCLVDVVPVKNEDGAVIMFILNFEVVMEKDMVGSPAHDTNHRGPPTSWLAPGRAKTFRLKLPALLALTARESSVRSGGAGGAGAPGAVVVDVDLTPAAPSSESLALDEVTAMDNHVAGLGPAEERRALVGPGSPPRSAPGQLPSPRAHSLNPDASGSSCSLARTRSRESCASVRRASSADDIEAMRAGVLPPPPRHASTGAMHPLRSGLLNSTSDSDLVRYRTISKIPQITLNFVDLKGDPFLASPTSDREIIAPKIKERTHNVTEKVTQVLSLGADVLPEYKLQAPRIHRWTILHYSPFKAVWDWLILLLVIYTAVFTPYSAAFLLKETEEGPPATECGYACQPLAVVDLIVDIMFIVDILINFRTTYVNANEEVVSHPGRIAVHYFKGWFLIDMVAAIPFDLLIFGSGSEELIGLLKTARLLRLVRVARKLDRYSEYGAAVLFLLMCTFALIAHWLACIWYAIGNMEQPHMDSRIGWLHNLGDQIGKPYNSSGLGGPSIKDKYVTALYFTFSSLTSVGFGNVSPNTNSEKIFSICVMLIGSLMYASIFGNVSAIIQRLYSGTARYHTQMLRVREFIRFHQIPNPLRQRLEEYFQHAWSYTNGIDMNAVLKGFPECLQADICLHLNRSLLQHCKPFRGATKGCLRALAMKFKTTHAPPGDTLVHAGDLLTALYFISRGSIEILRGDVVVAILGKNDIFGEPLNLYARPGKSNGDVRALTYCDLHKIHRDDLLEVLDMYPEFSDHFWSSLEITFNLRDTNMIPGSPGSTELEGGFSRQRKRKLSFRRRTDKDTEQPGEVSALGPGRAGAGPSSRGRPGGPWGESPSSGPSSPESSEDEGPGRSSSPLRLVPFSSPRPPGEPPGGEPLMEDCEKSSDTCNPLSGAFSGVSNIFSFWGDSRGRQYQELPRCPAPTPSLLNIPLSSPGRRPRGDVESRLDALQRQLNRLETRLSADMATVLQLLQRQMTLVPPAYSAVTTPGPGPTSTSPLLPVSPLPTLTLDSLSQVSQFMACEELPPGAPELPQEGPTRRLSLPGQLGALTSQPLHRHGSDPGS
- measurement description: Inhibition of hERG potassium ion channel, manual whole-cell patch clamp in CHO hERG cells
- Format: cell-based
- condition summary: CHO cells stably expressing hERG
For each entry below, report its hERG inhibition rate/10 μM value.
Lab book: enter the figure in %, no units written.

## Input // returns reported hERG inhibition rate/10 μM for input C[C@@]12CCCCC[C@@H](Cc3ccc(OC(=O)N4CC(O)C4)cc31)[C@@H]2N
## Output 17.07

## Input Give its hERG inhibition rate/10 μM value. Item: C[C@@]12CCCCC[C@@H](Cc3ccc(OC(=O)NC4CCOCC4)cc31)[C@@H]2N
## Output 13.32

## Input Sample C[C@@]12CCCCC[C@@H](Cc3ccc(OC(=O)N4CCS(=O)(=O)CC4)cc31)[C@@H]2N — what was its hERG inhibition rate/10 μM?
## Output 11.22

## Input Query: hERG inhibition rate/10 μM; subject: C[C@@]12CCCCC[C@@H](Cc3ccc(OC(=O)NC4(CO)CC4)cc31)[C@@H]2N
## Output 1.91

====

- assay system: hERG potassium channel (Homo sapiens)
- Construct: host or cells: CHO cells stably expressing hERG
- measurement description: Inhibition of hERG potassium ion channel, manual whole-cell patch clamp in CHO hERG cells
- Format: cell-based
- condition summary: human, CHO cells stably expressing hERG
readout: inhibition at 10 μM (%)
Give just the number in %; leave the unit off.

## Input Find the recorded inhibition at 10 μM belonging to C[C@@]12CCCCC[C@@H](Cc3ccc(OC(=O)Nc4ccc(O)cc4)cc31)[C@@H]2N [Compound Z-23] and report it.
## Output 71.5

## Input Given C[C@@]12CCCCC[C@@H](Cc3ccc(OC(=O)N4CCC(N5CCCCC5)CC4)cc31)[C@@H]2N [Compound Z-49] , state its recorded inhibition at 10 μM.
## Output 14.4

====

- measurement description: in vivo
- condition summary: male, SD, rat, 10 mg/kg, oral administration of dezocine in rats, Dezocine dosed at 10 mpk
readout: AUC (ng·h/mL)
Record the value in ng·h/mL, omitting the unit from your answer.

## Input Fill in: AUC of C[C@@]12CCCCC[C@@H](Cc3ccc(O)cc31)[C@@H]2N [Dezocine, dezocine] is ___
## Output 58.6

====

Task for the reader: assign each of the following compounds its reported CYP3A4(M) inhibition rate/1 μM.
- assay system: CYP3A4 (Homo sapiens, UniProt P08684)
- Construct: from tissue; host or cells: liver microsomes
- Sequence (P08684 whole entry): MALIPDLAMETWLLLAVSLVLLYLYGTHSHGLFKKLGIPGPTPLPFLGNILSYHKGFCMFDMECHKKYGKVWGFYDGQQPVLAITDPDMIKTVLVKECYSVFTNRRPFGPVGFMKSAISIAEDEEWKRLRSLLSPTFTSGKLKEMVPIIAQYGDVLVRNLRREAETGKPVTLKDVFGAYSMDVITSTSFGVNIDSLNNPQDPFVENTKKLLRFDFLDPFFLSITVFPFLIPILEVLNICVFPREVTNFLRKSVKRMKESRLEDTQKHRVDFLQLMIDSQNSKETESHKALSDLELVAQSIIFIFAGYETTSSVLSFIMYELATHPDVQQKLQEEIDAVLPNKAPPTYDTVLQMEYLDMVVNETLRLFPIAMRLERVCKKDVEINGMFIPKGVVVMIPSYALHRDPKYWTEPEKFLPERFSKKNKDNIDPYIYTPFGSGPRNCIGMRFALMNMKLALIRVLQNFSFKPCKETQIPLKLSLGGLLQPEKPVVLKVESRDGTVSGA
- measurement description: Inhibition of CYP enzyme (CYP3A4, midazolam substrate, liver microsomes)
- Assay type: in vitro ADME
- condition summary: midazolam (M) as probe substrate
Kindly provide the numeric value in % only, without the unit symbol.

## Input I'd like to know its CYP3A4(M) inhibition rate/1 μM. The compound in question is C[C@@]12CCCCC[C@@H](Cc3ccc(OC(=O)N4CCC(C(=O)O)CC4)cc31)[C@@H]2N [Compound Z-130]
## Output 13.0

## Input GET /values?readout=CYP3A4(M) inhibition rate/1 μM&item= C[C@@]12CCCCC[C@@H](Cc3ccc(OC(=O)NC(CO)CO)cc31)[C@@H]2N [Compound Z-138]
## Output 0

## Input Find the recorded CYP3A4(M) inhibition rate/1 μM belonging to C[C@@]12CCCCC[C@@H](Cc3ccc(OC(=O)N4CCC(N5CCOCC5)CC4)cc31)[C@@H]2N [Compound Z-109] and report it.
## Output 6.6

## Input Recorded CYP3A4(M) inhibition rate/1 μM for CC(CO)NC(=O)Oc1ccc2c(c1)C1(C)CCCCCC(C2)C1N (centres unmarked) [Compound Z-126] , please?
## Output 3.6

## Input So what does the record say about CYP3A4(M) inhibition rate/1 μM for CN(C)C1CCN(C(=O)Oc2ccc3c(c2)[C@@]2(C)CCCCC[C@@H](C3)[C@@H]2N)CC1 [Compound Z-123] ?
## Output 0

## Input Find the recorded CYP3A4(M) inhibition rate/1 μM belonging to CCN(C(=O)Oc1ccc2c(c1)[C@@]1(C)CCCCC[C@@H](C2)[C@@H]1N)C1CCN(C)CC1 [Compound Z-131] and report it.
## Output 26.7

## Input Any idea what CYP3A4(M) inhibition rate/1 μM was measured for CN(C(=O)Oc1ccc2c(c1)[C@@]1(C)CCCCC[C@@H](C2)[C@@H]1N)C1COC1 [Compound Z-141] ?
## Output 30.8

## Input Fill blank: measured CYP3A4(M) inhibition rate/1 μM of the compound CCN(CCN(C)C)C(=O)Oc1ccc2c(c1)[C@@]1(C)CCCCC[C@@H](C2)[C@@H]1N [Compound Z-113] is ____.
## Output 28.6

## Input GET /values?readout=CYP3A4(M) inhibition rate/1 μM&item= COC1CN(C(=O)Oc2ccc3c(c2)[C@@]2(C)CCCCC[C@@H](C3)[C@@H]2N)C1 [Compound Z-111]
## Output 45.7

## Input Reported CYP3A4(M) inhibition rate/1 μM for CC12CCCCCC(Cc3ccc(OC(=O)NC4CC(O)C4)cc31)C2N (centres unmarked) [Compound Z-115] : what is it?
## Output 18.0

## Input I am curious: what CYP3A4(M) inhibition rate/1 μM value has been reported for C[C@@]12CCCCC[C@@H](Cc3ccc(OC(=O)NC4CCOCC4)cc31)[C@@H]2N [Compound Z-110] ?
## Output 28.0

## Input Quick check: CYP3A4(M) inhibition rate/1 μM of C[C@@]12CCCCC[C@@H](Cc3ccc(OC(=O)NC4(CO)CC4)cc31)[C@@H]2N [Compound Z-122] ?
## Output 17.0

## Input I am curious: what CYP3A4(M) inhibition rate/1 μM value has been reported for C[C@@]12CCCCC[C@@H](Cc3ccc(OC(=O)NC4COC4)cc31)[C@@H]2N [Compound Z-117] ?
## Output 23.8

## Input Please give the measured CYP3A4(M) inhibition rate/1 μM for this compound: C[C@@]12CCCCC[C@@H](Cc3ccc(OC(=O)N4CCS(=O)(=O)CC4)cc31)[C@@H]2N [Compound Z-116]
## Output 14.2

## Input Could you share which CYP3A4(M) inhibition rate/1 μM value was measured for CN(C)CCNC(=O)Oc1ccc2c(c1)[C@@]1(C)CCCCC[C@@H](C2)[C@@H]1N [Compound Z-144] ?
## Output 22.2

## Input Given the entry CC1CNCCN1C(=O)Oc1ccc2c(c1)C1(C)CCCCCC(C2)C1N (centres unmarked) [Compound Z-129] , report its measured CYP3A4(M) inhibition rate/1 μM.
## Output 4.0

## Input Value lookup for CYP3A4(M) inhibition rate/1 μM; key = CC12CCCCCC(Cc3ccc(OC(=O)N4CCCC(C(=O)O)C4)cc31)C2N (centres unmarked) [Compound Z-136]
## Output 0

## Input If you can, please state the reported CYP3A4(M) inhibition rate/1 μM value of C[C@@]12CCCCC[C@@H](Cc3ccc(OC(=O)N4CCC(O)CC4)cc31)[C@@H]2N [Compound Z-124] .
## Output 19.6

## Input May I ask what CYP3A4(M) inhibition rate/1 μM has been recorded for COC(=O)C1CCCN(C(=O)Oc2ccc3c(c2)C2(C)CCCCCC(C3)C2N)C1 (centres unmarked) [Compound Z-135] ?
## Output 21.3

## Input Which measured CYP3A4(M) inhibition rate/1 μM value corresponds to CC(=O)N1CCN(C(=O)Oc2ccc3c(c2)[C@@]2(C)CCCCC[C@@H](C3)[C@@H]2N)CC1 [Compound Z-125] ?
## Output 18.1

## Input Any idea what its CYP3A4(M) inhibition rate/1 μM is? The compound is C[C@@]12CCCCC[C@@H](Cc3ccc(OC(=O)N4CCC4)cc31)[C@@H]2N [Compound Z-137]
## Output 45.3

## Input Look up CYP3A4(M) inhibition rate/1 μM for this compound: C[C@@]12CCCCC[C@@H](Cc3ccc(OC(=O)N4CCC(CO)CC4)cc31)[C@@H]2N [Compound Z-128]
## Output 41.9

## Input GET /values?readout=CYP3A4(M) inhibition rate/1 μM&item= CN(CCO)C(=O)Oc1ccc2c(c1)[C@@]1(C)CCCCC[C@@H](C2)[C@@H]1N [Compound Z-127]
## Output 17.4

## Input Item under review: CN1CCC(NC(=O)Oc2ccc3c(c2)[C@@]2(C)CCCCC[C@@H](C3)[C@@H]2N)CC1 [Compound Z-140] . Reported CYP3A4(M) inhibition rate/1 μM?
## Output 8.7

## Input Item C[C@@]12CCCCC[C@@H](Cc3ccc(OC(=O)N4CC(O)C4)cc31)[C@@H]2N [Compound Z-114] has what recorded CYP3A4(M) inhibition rate/1 μM?
## Output 11.8

## Input Query: CYP3A4(M) inhibition rate/1 μM; subject: C[C@@]12CCCCC[C@@H](Cc3ccc(OC(=O)NCCO)cc31)[C@@H]2N [Compound Z-118]
## Output 8.8

The reported measurements were obtained from patent US10577346B2.
